- TARGET_OF_ASSAY: human H4 receptor (Homo sapiens (Human))
- MEASUREMENT_DESCRIPTION: Binding assay on recombinant human histamine H4 receptor ([3H]histamine competition, SK-N-MC cell membranes)
- CONDITION_DESCRIPTION: membranes harvested with cell harvester; [3H]histamine 10 nM; average of results; read-out: Cell Harvester Ki
Reported Ki values for the following compounds.

{"columns": ["COMPOUND", "UNIT_OF_MEASURE", "Ki"],
 "data": [
  ["CC(C)(O)CNc1cc(N2CCNCC2)ccn1 [Example 290]", "nM", 1480],
  ["CNC1CN(c2ccnc(NCC(C)(C)O)n2)C1 [Example 122]", "nM", 64.7],
  ["N[C@@H]1CCN(c2ccnc(NCC3CCCO3)n2)C1 (stereo partly shown) [Example 51]", "nM", 123],
  ["NC1CN(c2ccnc(NC[C@H]3CCCO3)n2)C1 [Example 94]", "nM", 868],
  ["CC(C)(O)CNc1nccc(N2CC[C@@H](N)C2)n1 [Example 27]", "nM", 67.7],
  ["CN1CCN(c2ccnc(NCC(C)(C)O)c2)CC1 [Example 241]", "nM", 837],
  ["CNC1CN(c2ccnc(NCc3ccc(F)cc3)c2)C1 [Example 295]", "nM", 163],
  ["CN[C@H]1CCN(c2ccnc(N[C@H](C)C3CCCCC3)c2)C1 [Example 213]", "nM", 157],
  ["N[C@@H]1CCN(c2ccnc(NCc3ccccc3)n2)C1 [Example 179]", "nM", 788],
  ["NC1CN(c2ccnc(N[C@@H]3CCOC3)n2)C1 [Example 93]", "nM", 702],
  ["CC(C)CNc1cc(N2CC[C@H](N)C2)ccn1 [Example 14]", "nM", 114],
  ["CN[C@@H]1CCN(c2ccnc(N[C@H](C)C3CCCCC3)c2)C1 [Example 209]", "nM", 1460],
  ["c1cc(N2CCNCC2)cc(NCC2CC2)n1 [Example 35]", "nM", 74.7],
  ["CC(C)(CO)CNc1nccc(N2CC(N)C2)n1 [Example 151]", "nM", 1460],
  ["N[C@@H]1CCN(c2cnnc(NCc3ccc(F)cc3)c2)C1 [Example 342]", "nM", 936],
  ["CNC1CN(c2ccnc(N[C@H](C)C3CCCCC3)n2)C1 [Example 113]", "nM", 139]
]}

* * *

- TARGET_OF_ASSAY: human H4 receptor (Homo sapiens (Human), UniProt Q9H3N8)
- Sequence (Q9H3N8 whole entry): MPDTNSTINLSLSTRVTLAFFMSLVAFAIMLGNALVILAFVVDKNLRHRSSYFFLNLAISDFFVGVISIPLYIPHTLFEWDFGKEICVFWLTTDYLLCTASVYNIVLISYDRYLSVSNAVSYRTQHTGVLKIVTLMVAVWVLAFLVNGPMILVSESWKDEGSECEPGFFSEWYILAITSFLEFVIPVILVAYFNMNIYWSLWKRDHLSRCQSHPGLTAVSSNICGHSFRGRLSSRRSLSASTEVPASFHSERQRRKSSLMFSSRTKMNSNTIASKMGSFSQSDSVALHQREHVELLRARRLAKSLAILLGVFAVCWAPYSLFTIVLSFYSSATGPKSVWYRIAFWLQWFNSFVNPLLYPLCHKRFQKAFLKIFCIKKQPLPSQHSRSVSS
- MEASUREMENT_DESCRIPTION: Binding assay on recombinant human histamine H4 receptor ([3H]histamine competition, SK-N-MC cell membranes)
- CONDITION_DESCRIPTION: membranes harvested with cell harvester; [3H]histamine 10 nM; average of results; read-out: Cell Harvester Ki
Reported Ki values for the following molecules.

{"columns": ["MOLECULE", "Ki"],
 "data": [
  ["CN[C@H]1CCN(c2ccnc(NCC34CC5CC(CC(C5)C3)C4)c2)C1 [Example 251]", "79.4 nM"],
  ["CN[C@@H]1CCN(c2ccnc(NCCc3ccccc3)n2)C1 [Example 183]", "15.6 nM"],
  ["CN[C@@H]1CCN(c2cnnc(NCc3ccc(OC)cc3)c2)C1 [Example 400]", "2150 nM"],
  ["CN1CCN(c2ccnc(NC3CCC3)n2)CC1 [Example 54]", "87.9 nM"],
  ["CNC1CN(c2cnnc(NCCOC)c2)C1 [Example 320]", "4310 nM"],
  ["CN[C@@H]1CCN(c2ccnc(NCC3CCCC3)c2)C1 [Example 226]", "3.81 nM"],
  ["CN[C@H]1CCN(c2cnnc(NCC3CCCC3)c2)C1 [Example 382]", "138 nM"],
  ["CC(C)CNc1cc(N2CC(N)C2)cnn1 [Example 328]", "1680 nM"],
  ["CC1(C)[C@H]2CC[C@H](CNc3cc(N4C[C@H]5CCN[C@H]5C4)ccn3)[C@@H]1C2 [Example 291]", "239 nM"],
  ["CN[C@H]1CCN(c2ccnc(NCCc3ccccc3)c2)C1 [Example 245]", "228 nM"],
  ["CN[C@@H]1CCN(c2ccnc(NCC(C)(C)O)c2)C1 [Example 240]", "54.3 nM"],
  ["CN[C@@H]1CCN(c2ccnc(NC34CC5CC(CC(C5)C3)C4)c2)C1 [Example 218]", "2.62 nM"],
  ["N[C@@H]1CCN(c2ccnc(NC3CCCCC3)n2)C1 [Example 181]", "9.07 nM"],
  ["N[C@@H]1CCN(c2ccnc(NCC3CCCC3)n2)C1 [Example 123]", "2.04 nM"],
  ["CNC1CN(c2ccnc(N[C@H]3C[C@H]4CC[C@]3(C)C4(C)C)n2)C1 [Example 126]", "19.8 nM"],
  ["CNC1CN(c2cnnc(NCC(C)C)c2)C1 [Example 319]", "478 nM"],
  ["CN[C@H]1CCN(c2ccnc(NCc3ccccn3)c2)C1 [Example 229]", "> 10000 nM"],
  ["CN[C@H]1CCN(c2ccnc(NCCCO)c2)C1 [Example 234]", "7260 nM"],
  ["CN1CCN(c2cnnc(NCCc3ccccc3)c2)CC1 [Example 409]", "> 10000 nM"],
  ["c1nnc(NC2CC2)cc1N1CCNCC1 [Example 315]", "1920 nM"],
  ["CN[C@@H]1CCN(c2ccnc(NC(C)C)c2)C1 [Example 12]", "19.2 nM"],
  ["CN[C@@H]1CCN(c2cnnc(NCC(C)(C)C)c2)C1 [Example 392]", "18.3 nM"],
  ["CN[C@H]1CCN(c2ccnc(NC(C)(C)C)c2)C1 [Example 233]", "215 nM"],
  ["CN1CCN(c2ccnc(NCCCO)n2)CC1 [Example 161]", "1300 nM"],
  ["CNC1CN(c2ccnc(NCCCO)n2)C1 [Example 135]", "15.9 nM"],
  ["CC1C(Nc2cc(N3CCN(C)CC3)ccn2)C[C@H]2C[C@@H]1C2(C)C (stereo partly shown) [Example 232]", "716 nM"],
  ["NC1CN(c2ccnc(NC3CC3)n2)C1 [Example 91]", "182 nM"],
  ["NC1CN(c2ccnc(NCc3ccc(F)cc3)n2)C1 [Example 92]", "615 nM"],
  ["CNC1CN(c2ccnc(NCC(C)(C)O)c2)C1 [Example 282]", "173 nM"],
  ["CN[C@@H]1CCN(c2ccnc(N[C@H](C)c3ccccc3)n2)C1 [Example 180]", "116 nM"],
  ["c1nnc(NC2CCCCC2)cc1N1CCNCC1 [Example 355]", "2900 nM"],
  ["CN1CCN(c2ccnc(NCC3CCCCC3)c2)CC1 [Example 212]", "275 nM"],
  ["c1nnc(NCC2CCCC2)cc1N1CCNCC1 [Example 363]", "4730 nM"],
  ["N[C@@H]1CCN(c2ccnc(NCC3CCCC3)c2)C1 [Example 278]", "7.29 nM"],
  ["CNC1CN(c2ccnc(NCCCO)c2)C1 [Example 283]", "162 nM"],
  ["CN[C@H]1CCN(c2cnnc(NCC(C)(C)C)c2)C1 [Example 385]", "259 nM"],
  ["CN[C@H]1CCN(c2ccnc(NCc3ccccn3)n2)C1 [Example 200]", "860 nM"],
  ["c1nnc(NCC2CCCC2)cc1N1C[C@H]2CCN[C@H]2C1 [Example 360]", "1170 nM"],
  ["CNC1CN(c2ccnc(NC3CC3)c2)C1 [Example 281]", "21.3 nM"],
  ["CNC1CN(c2ccnc(NC3CCOCC3)n2)C1 [Example 108]", "141 nM"]
]}
